Molecular target: HDAC2 Human recombinant C-terminal FLAG-tag (Homo sapiens, UniProt Q92769)
Construct: FLAG (C); purchased BPS Bioscience 50052
Sequence (Q92769 whole entry): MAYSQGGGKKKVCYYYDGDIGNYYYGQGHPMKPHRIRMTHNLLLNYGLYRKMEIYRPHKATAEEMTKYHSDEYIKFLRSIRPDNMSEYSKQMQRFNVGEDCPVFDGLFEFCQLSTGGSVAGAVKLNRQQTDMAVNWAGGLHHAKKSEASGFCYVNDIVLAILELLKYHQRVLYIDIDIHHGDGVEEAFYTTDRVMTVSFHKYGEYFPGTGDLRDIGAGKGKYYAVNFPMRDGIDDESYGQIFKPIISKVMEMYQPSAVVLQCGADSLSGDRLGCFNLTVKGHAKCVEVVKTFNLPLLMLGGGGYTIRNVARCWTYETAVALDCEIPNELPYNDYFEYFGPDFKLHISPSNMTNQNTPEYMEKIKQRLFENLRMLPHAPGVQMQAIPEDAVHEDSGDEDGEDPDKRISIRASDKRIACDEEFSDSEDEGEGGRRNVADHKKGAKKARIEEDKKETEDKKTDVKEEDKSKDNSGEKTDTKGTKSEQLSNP
Assay: Measurement of HDAC2 enzyme inhibitory activity (HTRF)
Assay type: biochemical
Settings: recombinant HDAC2, H3K9ac peptide; read-out: IC50 (HDAC2)
pIC50: −log10 of the molar value.
Rule: pIC50 of 7 or more gives True; anything lower gives False.

INSERT INTO measurements (molecule, assigned_category) VALUES
  ('Nc1ccc(-c2cccnc2)cc1NC(=O)c1cnc(N2CCOCC2)cn1 [Compound I-312]', 'True'),
  ('CCC(=O)Nc1ccc(C(=O)Nc2nc(-c3ccccc3)ccc2N)nc1 [Compound I-308]', 'False'),
  ('CCC(=O)Nc1ccc(C(=O)Nc2cc(-c3ccc(F)nc3)ccc2N)nc1 [Compound I-306]', 'True');
